Ref: patent US6635662B2

- Test system: rat normal fibroblast cell line 3Y1-B
- assay_remarks: Growth inhibition test (MTT) on 3Y1-B
- Format: cell-based
- condition: 3Y1-B cells, 72 hours
measure: pIC50
Notebook: values listed as pIC50 are -log10 of the concentration (mol/L).

# example entries with known answers
- CC1CC2OC2C=CC=CC(=NOCc2ccccc2S(=O)(=O)N(C)C)Cc2c(Cl)c(O)cc(O)c2C(=O)O1 (centres unmarked): 6.92
- CC1CC2OC2C=CC=CC(=NOCCN2CCCC2=O)Cc2c(Cl)c(O)cc(O)c2C(=O)O1 (centres unmarked): 8.10
- C[C@@H]1C[C@H]2O[C@@H]2/C=C\C=C\C(=O)Cc2c(Cl)c(O)cc(O)c2C(=O)O1: 6.11
- CC1CC2OC2C=CC=CC(=NOCc2cccnc2)Cc2c(Cl)c(O)cc(O)c2C(=O)O1 (centres unmarked): 8.10

Okay, next one:
# input Query the reported pIC50 for rat normal fibroblast cell line 3Y1-B; item: CNC(=O)ON=C1/C=C/C=C\C2OC2CC(C)OC(=O)c2c(O)cc(O)c(Cl)c2C1 (centres unmarked)
# output 7.14
